# experimentalProtocol: Tremor-inducing action
# experimentalContext: 0.031 m mol/kg oral, 30 min, batches of 10 rats, hydrochloride form
measuredParameter: number of animals presenting tremors (denominator of ratio)
Write the number on its own, no unit after it.

Fill blank: measured number of animals presenting tremors (denominator of ratio) of the molecule C=CCC(CCC)(CCC)NC is ____. 0

Fill blank: measured number of animals presenting tremors (denominator of ratio) of the molecule C#CCNC(CCC)(CCC)CCC is ____. 5

Fill blank: measured number of animals presenting tremors (denominator of ratio) of the molecule CCCC(CCC)(NC)C(C)C is ____. 3

Fill blank: measured number of animals presenting tremors (denominator of ratio) of the molecule CCCC(CCC)(CCC)NC is ____. 4

Origin of measurements: patent US4201725A
